- Study system: T1, Human FM3 (human, UniProt Q9HB89 1-426)
- T1 construct: whole, on cells; Assayed as the membrane fraction of FM3-expressing CHO cells (1.2 mg/mL protein); also called NMUR1; FM3 receptor
- T1 sequence (looked up): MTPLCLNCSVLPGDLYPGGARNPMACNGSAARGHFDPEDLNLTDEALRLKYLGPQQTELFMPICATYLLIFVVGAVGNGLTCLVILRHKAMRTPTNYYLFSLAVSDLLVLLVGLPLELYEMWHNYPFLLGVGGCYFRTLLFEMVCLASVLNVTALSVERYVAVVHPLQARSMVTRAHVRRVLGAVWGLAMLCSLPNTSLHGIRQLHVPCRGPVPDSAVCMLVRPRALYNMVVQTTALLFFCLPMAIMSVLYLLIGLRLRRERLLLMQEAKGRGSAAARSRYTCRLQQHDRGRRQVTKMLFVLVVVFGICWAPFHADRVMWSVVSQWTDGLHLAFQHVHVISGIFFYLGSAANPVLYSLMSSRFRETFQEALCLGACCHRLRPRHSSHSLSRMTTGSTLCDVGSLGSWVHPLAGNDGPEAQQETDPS
- Protocol details: displacement of 125I-NMU8 from human FM3 CHO membrane fraction; IC50 relative to NMU-8;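 note: binding reaction run for 70 min at 25 °C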
Non-standard residues stand in square brackets, D forms with d. No end group written: not given here. *: point of attachment. Acetyl(2-(piperazin-1-yl)) = O=C(CN1CCNCC1)*; PEG 30 kDa = methoxypolyethylene glycol 30k; 2Nal = N[C@@H](Cc1ccc2ccccc2c1)C(=O)O; NMeY = CN[C@@H](Cc1ccc(O)cc1)C(=O)O; NMeR = CN[C@@H](CCCNC(=N)N)C(=O)O; Cha = N[C@@H](CC1CCCCC1)C(=O)O; NMeL = CN[C@@H](CC(C)C)C(=O)O; NMeA = CN[C@@H](C)C(=O)O; βAla = NCCC(=O)O
Measurement type: IC50 ratio

>  <Binder>
[βAla]YF[Cha]FRPRN-NH2 (N-terminus assumed; SMILES N=C(N)NCCC[C@H](NC(=O)[C@@H]1CCCN1C(=O)[C@H](CCCNC(=N)N)NC(=O)[C@H](Cc1ccccc1)NC(=O)[C@H](CC1CCCCC1)NC(=O)[C@H](Cc1ccccc1)NC(=O)[C@H](Cc1ccc(O)cc1)NC(=O)CCN)C(=O)N[C@@H](CC(N)=O)C(N)=O, X stands for Cha) [β-Ala0,Cha3-NMU-8 (Compound 6)]

>  <IC50 ratio>
0.55 ratio to NMU-8 (=1)

$$$$
>  <Binder>
{PEG 30 kDa-βAla}-YYLFRPRN-NH2 (also called PEG-NH-β-Ala0,Tyr2-NMU-8) [PEG30k-NH-β-Ala0,Tyr2-NMU-8 (Compound E)]

>  <IC50 ratio>
8.1 ratio to NMU-8 (=1)

$$$$
>  <Binder>
{mPEG 20 kDa-βAla}-[NMeY]F[NMeL]F[NMeR]PRN-NH2 [PEG20k-NH-β-Ala0,NMeTyr1,NMeLeu3,NMeArg5-NMU-8 (Compound P)]

>  <IC50 ratio>
83 ratio to NMU-8 (=1)

$$$$
>  <Binder>
YFRFRPRN-NH2 (no linker) [Arg3-NMU-8 (Compound 9)]

>  <IC50 ratio>
0.62 ratio to NMU-8 (=1)

$$$$

Returns the measured IC50 ratio for the input binder. Input: {PEG 30 kDa-Acetyl(2-(piperazin-1-yl))}-YFRFRPRN-NH2 [PEG30k-NpipAc-Arg3-NMU-8 (Compound J)] 2.2 ratio to NMU-8 (=1)

I am curious: what IC50 ratio value has been reported for {Acetyl(2-(piperazin-1-yl))}-Y[2Nal]LFR[NMeA]RN-NH2 (SMILES CC(C)C[C@H](NC(=O)[C@H](Cc1ccc2ccccc2c1)NC(=O)[C@H](Cc1ccc(O)cc1)NC(=O)CN1CCNCC1)C(=O)N[C@@H](Cc1ccccc1)C(=O)N[C@@H](CCCNC(=N)N)C(=O)N(C)[C@@H](C)C(=O)N[C@@H](CCCNC(=N)N)C(=O)N[C@@H](CC(N)=O)C(N)=O, X stands for Nal(2); also called 2-(piperazin-1-yl)acetyl-[Nal(2)2,NMeAla6]-NMU8) [NpipAc0,Nal(2)2,NMeAla6-NMU-8 (Compound 22)] ? 99 ratio to NMU-8 (=1)

Data credit: patent US20120094899A1
